# Format: in vivo, human
# reported.conditions: female, human, serum, other: vaginal, 0.03 mg, serum estriol (E3) concentration, Visit C2 (day 28); median; −0.5 h (pre-dose)
property.measured: concentration at -0.5 h (ng/mL)

[[record]]
smiles = "C[C@]12CC[C@@H]3c4ccc(O)cc4CC[C@H]3[C@@H]1C[C@@H](O)[C@@H]2O"
uom = "ng/mL"
result = 0


====

# Type: in vivo, human
# reported.conditions: female, human, serum, other: vaginal, 0.03 mg, serum estriol (E3) concentration, Visit C2 (day 28); maximum; −0.5 h (pre-dose)
property.measured: concentration at -0.5 h (ng/mL)

[[record]]
compound = "C[C@]12CC[C@@H]3c4ccc(O)cc4CC[C@H]3[C@@H]1C[C@@H](O)[C@@H]2O [E3, estriol]"
result = 0.0145


====

# Assay type: in vivo, human
# reported.conditions: female, human, serum, other: vaginal, 0.03 mg, serum estriol (E3) concentration, Visit C2 (day 28); minimum; −0.5 h (pre-dose)
property.measured: concentration at -0.5 h (ng/mL)

[[record]]
smiles = "C[C@]12CC[C@@H]3c4ccc(O)cc4CC[C@H]3[C@@H]1C[C@@H](O)[C@@H]2O"
result = 0


====

# Assay type: in vivo, human
# reported.conditions: female, human, serum, other: vaginal, 0.03 mg, t max,E, Visit E (day 0); mean; n=15
property.measured: Tmax

[[record]]
smiles = "C[C@]12CC[C@@H]3c4ccc(O)cc4CC[C@H]3[C@@H]1C[C@@H](O)[C@@H]2O"
result = "2.5 h"


====

# Assay type: in vivo, human
# reported.conditions: female, human, serum, other: vaginal, 0.03 mg, t max,C2, Visit C2 (day 28); median
property.measured: Tmax (h)

[[record]]
smiles = "C[C@]12CC[C@@H]3c4ccc(O)cc4CC[C@H]3[C@@H]1C[C@@H](O)[C@@H]2O"
uom = "h"
result = 7.9


====

# Type: in vivo, human
# reported.conditions: female, human, serum, other: vaginal, 0.03 mg, t max,E, Visit E (day 0); median
property.measured: Tmax (h)

[[record]]
smiles = "C[C@]12CC[C@@H]3c4ccc(O)cc4CC[C@H]3[C@@H]1C[C@@H](O)[C@@H]2O"
uom = "h"
result = 2.2


====

# Assay type: in vivo, human
# reported.conditions: female, human, serum, other: vaginal, 0.03 mg, serum estriol (E3) concentration, Visit C2 (day 28); mean; −0.5 h (pre-dose)
property.measured: concentration at -0.5 h (pg/mL)

[[record]]
smiles = "C[C@]12CC[C@@H]3c4ccc(O)cc4CC[C@H]3[C@@H]1C[C@@H](O)[C@@H]2O"
uom = "pg/mL"
result = 0.91


====

# Type: in vivo, human
# reported.conditions: female, human, serum, other: vaginal, 0.03 mg, AUC(0–24),C2, Visit C2 (day 28); mean; n=15; not reliable due to late metabolism and insufficient testing points
property.measured: AUC(0-t) (ng·h/mL)

[[record]]
smiles = "C[C@]12CC[C@@H]3c4ccc(O)cc4CC[C@H]3[C@@H]1C[C@@H](O)[C@@H]2O"
result = 0.131


====

# Assay type: in vivo, human
# reported.conditions: female, human, serum, other: vaginal, 0.03 mg, AUC(0–24),E, Visit E (day 0); mean; n=16
property.measured: AUC(0-t)

[[record]]
smiles = "C[C@]12CC[C@@H]3c4ccc(O)cc4CC[C@H]3[C@@H]1C[C@@H](O)[C@@H]2O"
property_measured = "AUC(0-t)"
result = "0.212 ng·h/mL"


====

# Format: in vivo, human
# reported.conditions: female, human, serum, other: vaginal, 0.03 mg, E3 baseline and trough, maximum; visit C2 (week 4)
property.measured: concentration at -0.5 h (ng/mL)

[[record]]
smiles = "C[C@]12CC[C@@H]3c4ccc(O)cc4CC[C@H]3[C@@H]1C[C@@H](O)[C@@H]2O"
property_measured = "concentration at -0.5 h"
result = 0.0145


====

# Format: in vivo, human
# reported.conditions: female, human, serum, other: vaginal, 0.03 mg, C max,E, Visit E (day 0); GeoMean
property.measured: Cmax

[[record]]
compound = "C[C@]12CC[C@@H]3c4ccc(O)cc4CC[C@H]3[C@@H]1C[C@@H](O)[C@@H]2O [E3, estriol]"
property_measured = "Cmax"
result = "0.0882 ng/mL"


====

# Format: in vivo, human
# reported.conditions: female, human, serum, other: vaginal, 0.03 mg, serum estriol (E3) concentration, Visit E (day 0); median; −0.5 h (pre-dose)
property.measured: concentration at -0.5 h (ng/mL)

[[record]]
compound = "C[C@]12CC[C@@H]3c4ccc(O)cc4CC[C@H]3[C@@H]1C[C@@H](O)[C@@H]2O [E3, estriol]"
result = 0


====

# Format: in vivo, human
# reported.conditions: female, human, serum, other: vaginal, 0.03 mg, C max,C2, Visit C2 (day 28); GeoMean
property.measured: Cmax (ng/mL)

[[record]]
smiles = "C[C@]12CC[C@@H]3c4ccc(O)cc4CC[C@H]3[C@@H]1C[C@@H](O)[C@@H]2O"
result = 0.011


====

# Assay type: in vivo, human
# reported.conditions: female, human, serum, other: vaginal, 0.03 mg, AUC(0–24),E, Visit E (day 0); median
property.measured: AUC(0-t) (ng·h/mL)

[[record]]
smiles = "C[C@]12CC[C@@H]3c4ccc(O)cc4CC[C@H]3[C@@H]1C[C@@H](O)[C@@H]2O"
property_measured = "AUC(0-t)"
result = 0.241


====

# Type: in vivo, human
# reported.conditions: female, human, serum, other: vaginal, 0.03 mg, AUC(0–24),E, Visit E (day 0); GeoMean
property.measured: AUC(0-t)

[[record]]
compound = "C[C@]12CC[C@@H]3c4ccc(O)cc4CC[C@H]3[C@@H]1C[C@@H](O)[C@@H]2O [E3, estriol]"
property_measured = "AUC(0-t)"
result = "0.154 ng·h/mL"


====

# Assay type: in vivo, human
# reported.conditions: female, human, serum, other: vaginal, 0.03 mg, serum estriol (E3) concentration, Visit E (day 0); mean; −0.5 h (pre-dose)
property.measured: concentration at -0.5 h (ng/mL)

[[record]]
smiles = "C[C@]12CC[C@@H]3c4ccc(O)cc4CC[C@H]3[C@@H]1C[C@@H](O)[C@@H]2O"
result = 0

